src = patent US10913773B2

TEST_SYSTEM: T1, Recombinant TNFα containing an N-terminal 13-aa ybbR tag (human, UniProt P01375 77-233, biotin at the ybbR tag in the ELISA assays)
T1 construct: Expressed in E. coli; Same construct used unlabelled (FA) and biotinylated on NeutrAvidin (ELISA); also called tumor necrosis factor-alpha; human TNFα; not shown: N-terminal 13-aa ybbR tag
T1 sequence (P01375 77-233): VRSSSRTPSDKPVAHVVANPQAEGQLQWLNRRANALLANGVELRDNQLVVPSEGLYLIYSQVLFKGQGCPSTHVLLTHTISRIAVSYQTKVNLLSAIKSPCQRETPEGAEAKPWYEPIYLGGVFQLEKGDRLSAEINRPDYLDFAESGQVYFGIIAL
ASSAY_OVERVIEW: FA, FITC-peptide + TNFα titration
pKd: −log10 of the molar value. Positions of bridges follow the written chain, without caps; N, C: chain ends. Non-standard residues stand in square brackets, D forms with d. Primed or numbered codes have the meaning given here. No end group written: not given here. *: point of attachment. FITC = O=C1OC2(c3ccc(O)cc3Oc3cc(O)ccc32)c2ccc(NC(=S)*)cc21; trimesoyl″ = benzene-1,3,5-tricarbonyl scaffold; FITC′ = fluorescein isothiocyanate, on Lys NZ; Nle = CCCC[C@H](N)C(=O)O; Dap = NC[C@H](N)C(=O)O; Sar = CNCC(=O)O
Decide by pKd: equal to or exceeding 6 means 1, less means 0.

Is the recorded value of pKd equal to or greater than 6 for this binder? VY[dN]KY[dF]G[dK]H[Dap]K(FITC′)-NH2 (linker (positions not given here) via trimesoyl″; not fully specified (N-terminus, bridges)) [C1-15]
0

Is the recorded value of pKd equal to or greater than 6 for this binder? [Nle]Y[dS]KY[dH][Sar][dK]H[Dap]K(FITC)-NH2 (linker N-4-10 via trimesoyl″) [C1-43]
1

Is the recorded value of pKd equal to or greater than 6 for this binder? FY[dN]KY[dF]G[dK]H[Dap]K(FITC′)-NH2 (linker (positions not given here) via trimesoyl″; not fully specified (N-terminus, bridges)) [C1-17]
0

Is the recorded value of pKd equal to or greater than 6 for this binder? [Nle]Y[dS]KY[dH]A[dK]H[Dap]K(FITC)-NH2 (linker N-4-10 via trimesoyl″) [C1-44]
1
